Tested on: Candida albicans
PROTOCOL_DETAILS: Disk diffusion susceptibility test; further: key: -: No inhibition; +: Positive inhibition (zone of inhibition mm)
Type: cell-based
CONDITION_LABEL: 5 mg per disc, 37 °C, 24 h
READOUT_KIND: Inhibition (positive / none) C. albicans

Worked examples follow.
In: Request the reported Inhibition (positive / none) C. albicans associated with CS(=O)(=O)c1ccc(-n2nc3ccccc3c2-c2ccccc2)cc1 [Compound 21]
Out: -

In: Request the reported Inhibition (positive / none) C. albicans associated with Clc1ccc(-c2c3ccccc3nn2-c2ccccc2)cc1 [Compound 22, 3-(4-Chlorophenyl)-2-phenyl-2H-indazole]
Out: -

In: Request the reported Inhibition (positive / none) C. albicans associated with COC(=O)c1ccc(-c2c3ccccc3nn2-c2ccccc2)cc1 [Compound 23]
Out: +

In: Request the reported Inhibition (positive / none) C. albicans associated with COC(=O)c1ccc(-n2nc3ccccc3c2-c2ccccc2)cc1 [Compound 18]
Out: +

In: Request the reported Inhibition (positive / none) C. albicans associated with c1ccc(-n2cc3ccccc3n2)cc1 [Compound 7, 2-Phenyl-2H-indazole]
Out: -

Further cases:
In: Request the reported Inhibition (positive / none) C. albicans associated with CS(=O)(=O)c1ccc(-n2cc3ccccc3n2)cc1 [Compound 15]
Out: -

In: Request the reported Inhibition (positive / none) C. albicans associated with COC(=O)c1ccc(-n2cc3ccccc3n2)cc1 [Compound 10, Methyl 4-(2H-indazol-2-yl) benzoate]
Out: -

In: Request the reported Inhibition (positive / none) C. albicans associated with O=C(O)c1ccc(-n2nc3ccccc3c2-c2ccccc2)cc1 [Compound 20]
Out: -

In: Request the reported Inhibition (positive / none) C. albicans associated with O=C(O)c1ccc(-c2c3ccccc3nn2-c2ccccc2)cc1 [Compound 25]
Out: +
